In this section, each of the molecules is paired with its reported HepSE_liver function tests abnormal.
- System: Hepatotoxicity;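 note: hepatic side effect score taken from the DILIps (drug-induced liver injury prediction system) training data, here covering abnormal liver function test findings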
*1 amine or outer side, *2 acyl side, *3 side chain or, on linkers, in order; H or OH if unused. Where a SMILES comes first, the peptide text is derived from it. Bridges are numbered along the chain shown (N, C = ends). [ ]: non-standard residue; d: D form. The star is where a group is joined. pTerphenylCO(4''-OnC5H11) = CCCCCOc1ccc(-c2ccc(-c3ccc(C(=O)*)cc3)cc2)cc1; Orn(4R-OH,5R-OH) = O=C([C@H](C[C@@H](O)[C@@H](O)N[*:3])N[*:1])[*:2]; hTyr(3S-OH,4S-OH) = N[C@H](C(=O)O)[C@H](O)[C@@H](O)c1ccc(O)cc1; Pro(3S-OH,4S-Me) = C[C@H]1CN[C@H](C(=O)O)[C@H]1O; Hyp = O=C(O)[C@@H]1C[C@@H](O)CN1
attribute.measured: HepSE_liver function tests abnormal

molecule=CC[C@]1(O)C[C@@H]2CN(CCc3c([nH]c4ccccc34)[C@@](C(=O)OC)(c3cc4c(cc3OC)N(C)[C@H]3[C@@](O)(C(=O)OC)[C@H](OC(C)=O)[C@]5(CC)C=CCN6CC[C@]43[C@@H]65)C2)C1 meas_value=0
molecule=C[C@@H]1C[C@H]2[C@@H]3CCC4=CC(=O)C=C[C@]4(C)[C@@]3(F)[C@@H](O)C[C@]2(C)[C@@]1(O)C(=O)CO meas_value=0
molecule="CCCCCOc1ccc(-c2ccc(-c3ccc(C(=O)N[C@H]4C[C@@H](O)[C@@H](O)NC(=O)[C@@H]5[C@@H](O)[C@@H](C)CN5C(=O)[C@H]([C@@H](C)O)NC(=O)[C@H]([C@H](O)[C@@H](O)c5ccc(O)cc5)NC(=O)[C@@H]5C[C@@H](O)CN5C(=O)[C@H]([C@@H](C)O)NC4=O)cc3)cc2)cc1 [ANIDULAFUNGIN] ({pTerphenylCO(4''-OnC5H11)}-[Orn(4R-OH,5R-OH)]T[Hyp][hTyr(3S-OH,4S-OH)]T[Pro(3S-OH,4S-Me)]; lactam 1-C)" meas_value=1
molecule=OCCN1C[C@H](O)[C@@H](O)[C@H](O)[C@H]1CO meas_value=0
molecule="CC(C)CC(N(C)C)C1(c2ccc(Cl)cc2)CCC1 (stereo unspecified)" meas_value=1
molecule="Cc1nc2n(c(=O)c1CCN1CCC(c3noc4cc(F)ccc34)CC1)CCCC2O (stereo unspecified)" meas_value=0
molecule=COc1cc(NS(C)(=O)=O)ccc1Nc1c2ccccc2nc2ccccc12 meas_value=0
molecule="O=[N+]([O-])O[C@H]1CO[C@H]2[C@@H]1OC[C@H]2O[N+](=O)[O-] [ISOSORBIDE DINITRATE]" meas_value=0
molecule=CCC[C@H](N[C@@H](C)C(=O)N1[C@H](C(=O)O)C[C@@H]2CCCC[C@@H]21)C(=O)OCC meas_value=0
molecule=CC(C)[C@H](N)C(=O)OCCOCn1cnc2c(=O)[nH]c(N)nc21 meas_value=0
molecule="O=[As][As+](=O)[O-] (stereo unspecified) [ARSENIC TRIOXIDE]" meas_value=0
molecule=C[C@@H]1C[C@H]2[C@@H]3C[C@H](F)C4=CC(=O)C=C[C@]4(C)[C@@]3(F)[C@@H](O)C[C@]2(C)[C@@]1(O)C(=O)CO meas_value=0
molecule=CN1CCN(C2=Nc3ccccc3Oc3ccc(Cl)cc32)CC1 meas_value=0
molecule="CCc1cccc2c3c([nH]c12)C(CC)(CC(=O)O)OCC3 (stereo unspecified)" meas_value=0
molecule=Oc1ccc(OCc2ccccc2)cc1 meas_value=0
molecule=CCc1nn(CCCN2CCN(c3cccc(Cl)c3)CC2)c(=O)n1CCOc1ccccc1 meas_value=1
molecule="CN(C)CCC=C1c2ccccc2COc2ccccc21 [DOXEPIN]" meas_value=0
molecule=Nc1nc2ncc(CNc3ccc(C(=O)N[C@@H](CCC(=O)O)C(=O)O)cc3)nc2c(=O)[nH]1 meas_value=0
molecule=Clc1ccccc1C(c1ccccc1)(c1ccccc1)n1ccnc1 meas_value=1
molecule=CC(C)(O/N=C(\C(=O)N[C@@H]1C(=O)N2C(C(=O)[O-])=C(C[n+]3ccccc3)CS[C@H]12)c1csc(N)n1)C(=O)O meas_value=0
molecule="Cc1cn[nH]c1 [FOMEPIZOLE]" meas_value=0
molecule="CC(=O)N1CCN(c2ccc(OCC3COC(Cn4ccnc4)(c4ccc(Cl)cc4Cl)O3)cc2)CC1 (stereo unspecified)" meas_value=0
molecule=CCN(CC)C(=O)/C(C#N)=C/c1cc(O)c(O)c([N+](=O)[O-])c1 meas_value=0
molecule="CO[C@@]1(NC(=O)C2SC(=C(C(N)=O)C(=O)O)S2)C(=O)N2C(C(=O)O)=C(CSc3nnnn3C)CS[C@@H]21 (stereo partly specified)" meas_value=0
molecule="COCCc1ccc(OCC(O)CNC(C)C)cc1 (stereo unspecified)" meas_value=0
molecule="CC(C)(Oc1ccc(CCNC(=O)c2ccc(Cl)cc2)cc1)C(=O)O [BEZAFIBRATE]" meas_value=0
molecule="COc1ccnc(C[S+]([O-])c2nc3ccc(OC(F)F)cc3[nH]2)c1OC (stereo unspecified)" meas_value=1
molecule=S=P(N1CC1)(N1CC1)N1CC1 meas_value=0
molecule=CC(C)(C)NC[C@H](O)COc1ccccc1C1CCCC1 meas_value=0
molecule=CCOC(=O)[C@H](CCc1ccccc1)N[C@@H](C)C(=O)N1CCC[C@H]1C(=O)O meas_value=0
molecule="CCCCCCC(C)(C)c1cc(O)c2c(c1)OC(C)(C)C1CCC(=O)CC21 (stereo unspecified)" meas_value=0
